assaySummary: In vivo pharmacokinetic study
Parameters: species or system Sprague–Dawley (SD) rats
conditions: male, Sprague-Dawley, serum; rat; Oral (10 mg/kg); read-out: Cmax
readoutType: Cmax (ng/mL)

structureNotation: CC(C)(C)CCOc1c(-c2ccc(F)c(F)c2)oc2cc(OCC(=O)O)cc(O)c2c1=O
readoutUnit: ng/mL
observedResult: 290

* * *

experimentalSystem: NDM-1 (Klebsiella pneumoniae)
Sequence (C7C422 29-270, looked up, species assumed): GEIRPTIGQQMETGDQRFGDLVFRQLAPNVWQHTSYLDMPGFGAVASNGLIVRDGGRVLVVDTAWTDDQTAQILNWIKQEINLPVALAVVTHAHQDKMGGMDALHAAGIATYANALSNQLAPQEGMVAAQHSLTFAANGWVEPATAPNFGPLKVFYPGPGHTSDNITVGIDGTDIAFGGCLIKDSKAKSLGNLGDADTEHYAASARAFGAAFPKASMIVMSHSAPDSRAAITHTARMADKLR
assaySummary: β-lactamase inhibition assay (imipenem)
conditions: imipenem substrate; read-out: BLi, IC50 NDM-1
pIC50: −log10 of the molar value.
readoutType: pIC50

compound: CC(C)(C)CCOc1c(-c2ccc(F)c(F)c2)oc2cc(OCC(=O)O)cc(O)c2c1=O
experimentalSystem: NDM-1 (Klebsiella pneumoniae)
operatorSymbol: =
observedResult: 5.21

compound: CC(C)(C)CCOc1c(-c2ccc(F)c(F)c2)oc2cc(OCC(=O)Nc3ccccc3)cc(O)c2c1=O
experimentalSystem: NDM-1 (Klebsiella pneumoniae)
operatorSymbol: =
observedResult: 5.12

compound: O=C(O)CC(Oc1cc(O)c2c(=O)c(OCCC3CCCCC3)c(-c3ccc(F)c(F)c3)oc2c1)C(=O)O (stereo not shown)
experimentalSystem: NDM-1 (Klebsiella pneumoniae)
operatorSymbol: <
observedResult: 4.30

compound: CN1CCCC1CCOc1cc(O)c2c(=O)c(OCCC(C)(C)C)c(-c3ccc(F)c(F)c3)oc2c1 (stereo not shown)
experimentalSystem: NDM-1 (Klebsiella pneumoniae)
operatorSymbol: <
observedResult: 4.30
